Biological target: recombinant human DPP9 (Homo sapiens)
Construct: purchased R&D Systems
Sequence (Q86TI2 whole entry): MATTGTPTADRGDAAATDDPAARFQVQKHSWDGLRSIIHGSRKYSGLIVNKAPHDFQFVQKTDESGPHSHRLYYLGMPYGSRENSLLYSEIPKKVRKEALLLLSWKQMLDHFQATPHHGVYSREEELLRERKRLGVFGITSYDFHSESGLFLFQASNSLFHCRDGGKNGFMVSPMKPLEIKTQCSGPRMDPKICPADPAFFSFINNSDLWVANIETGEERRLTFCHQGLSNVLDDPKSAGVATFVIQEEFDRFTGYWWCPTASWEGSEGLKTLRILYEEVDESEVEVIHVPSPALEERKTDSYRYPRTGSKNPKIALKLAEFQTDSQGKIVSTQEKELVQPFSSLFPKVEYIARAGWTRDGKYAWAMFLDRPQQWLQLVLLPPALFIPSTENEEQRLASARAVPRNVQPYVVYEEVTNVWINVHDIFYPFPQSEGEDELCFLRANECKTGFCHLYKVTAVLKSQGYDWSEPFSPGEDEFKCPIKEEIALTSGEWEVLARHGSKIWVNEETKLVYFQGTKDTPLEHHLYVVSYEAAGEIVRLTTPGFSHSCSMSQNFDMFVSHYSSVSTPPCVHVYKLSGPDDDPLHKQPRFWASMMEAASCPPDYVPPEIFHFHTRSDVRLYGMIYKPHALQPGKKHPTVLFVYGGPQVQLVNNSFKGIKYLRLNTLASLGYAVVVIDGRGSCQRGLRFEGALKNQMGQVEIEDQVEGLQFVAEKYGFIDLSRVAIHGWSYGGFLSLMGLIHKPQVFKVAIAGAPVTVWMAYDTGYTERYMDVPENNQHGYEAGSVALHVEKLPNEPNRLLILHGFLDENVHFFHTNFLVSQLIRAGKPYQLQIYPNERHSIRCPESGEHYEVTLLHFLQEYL
Assay: DPP9 inhibition, fluorogenic substrate H-Gly-Pro-AMC
Assay type: biochemical
Conditions: 25° C., H-Gly-Pro-AMC substrate
pIC50: −log10 of the molar value.
Observation type: pIC50

smiles_code=COc1cccc2cc(N(C)[C@H]3CCN(CC(=O)N4CCC[C@H]4C#N)C3)cnc12 target="recombinant human DPP9 (Homo sapiens)" observation_type=pIC50 relational_operator== quantitative_result=4.38
smiles_code=CN(c1cnc2ccccc2c1)[C@@H]1CCN(CC(=O)N2CCC[C@H]2C#N)C1 target="recombinant human DPP9 (Homo sapiens)" observation_type=pIC50 relational_operator=≤ quantitative_result=4.00
smiles_code=COc1cc2nccc(O[C@H]3CCN(CC(=O)N4CCC[C@H]4C#N)C3)c2cc1OC target="recombinant human DPP9 (Homo sapiens)" observation_type=pIC50 relational_operator=< quantitative_result=4.00
smiles_code=CN(c1cnc2ccccc2c1)[C@H]1CCN(CC(=O)N2CCC[C@H]2C#N)C1 target="recombinant human DPP9 (Homo sapiens)" observation_type=pIC50 relational_operator== quantitative_result=4.15
smiles_code=N#C[C@@H]1CC(F)(F)CN1C(=O)CN1CCC(Nc2cccc3ncccc23)CC1 target="recombinant human DPP9 (Homo sapiens)" observation_type=pIC50 relational_operator== quantitative_result=5.47
smiles_code=N#C[C@@H]1CCCN1C(=O)CN1CCC(Nc2cc(F)cc3ncccc23)CC1 target="recombinant human DPP9 (Homo sapiens)" observation_type=pIC50 relational_operator== quantitative_result=4.35
smiles_code=N#C[C@@H]1CCCN1C(=O)CN1CC[C@H](NC(=O)c2coc3cc(F)ccc23)C1 target="recombinant human DPP9 (Homo sapiens)" observation_type=pIC50 relational_operator=< quantitative_result=4.00
smiles_code=N#C[C@@H]1CCCN1C(=O)CN1CC[C@@H](Nc2cncc3ccccc23)C1 target="recombinant human DPP9 (Homo sapiens)" observation_type=pIC50 relational_operator== quantitative_result=4.17
smiles_code=N#C[C@@H]1CCCN1C(=O)CN1CC[C@H](Nc2cccc3ncccc23)C1 target="recombinant human DPP9 (Homo sapiens)" observation_type=pIC50 relational_operator== quantitative_result=4.56
smiles_code=N#C[C@@H]1CC(F)(F)CN1C(=O)CN1CC[C@H](Nc2cccc3ccoc23)C1 target="recombinant human DPP9 (Homo sapiens)" observation_type=pIC50 relational_operator== quantitative_result=4.77
smiles_code=N#C[C@@H]1C[C@H](F)CN1C(=O)CN1CC[C@H](Nc2cncc3ccoc23)C1 target="recombinant human DPP9 (Homo sapiens)" observation_type=pIC50 relational_operator== quantitative_result=5.08
smiles_code=N#C[C@@H]1CC(F)(F)CN1C(=O)CN1CC[C@H](Nc2cccc(-c3ccccc3)c2)C1 target="recombinant human DPP9 (Homo sapiens)" observation_type=pIC50 relational_operator== quantitative_result=4.86
smiles_code=N#C[C@@H]1CC(F)(F)CN1C(=O)CN1CC[C@H](Nc2cncc3ccoc23)C1 target="recombinant human DPP9 (Homo sapiens)" observation_type=pIC50 relational_operator== quantitative_result=4.75
smiles_code=N#C[C@@H]1CCCN1C(=O)CN1CC[C@H](NC(=O)c2coc3ccc(F)cc23)C1 target="recombinant human DPP9 (Homo sapiens)" observation_type=pIC50 relational_operator=< quantitative_result=4.00
smiles_code=COc1ccc(NC2CCN(CC(=O)N3C[C@@H](F)C[C@H]3C#N)CC2)c2cccnc12 target="recombinant human DPP9 (Homo sapiens)" observation_type=pIC50 relational_operator== quantitative_result=5.46
smiles_code=Cc1cnc2cccc(NC3CCN(CC(=O)N4CCC[C@H]4C#N)CC3)c2c1 target="recombinant human DPP9 (Homo sapiens)" observation_type=pIC50 relational_operator== quantitative_result=4.33
smiles_code=COc1cc(NC2CCN(CC(=O)N3C[C@@H](F)C[C@H]3C#N)CC2)c2cccnc2c1 target="recombinant human DPP9 (Homo sapiens)" observation_type=pIC50 relational_operator== quantitative_result=5.22
smiles_code=N#C[C@@H]1CCCN1C(=O)CN1CCC(Nc2ccnc3ccccc23)CC1 target="recombinant human DPP9 (Homo sapiens)" observation_type=pIC50 relational_operator== quantitative_result=4.68
